Tested on: MV4-11 (MLL-AF4) cells
procedure_text: Cell proliferation inhibition, CellTiterGlo viability assay, 4 days (Example 102)
Type: cell-based, human
measurement_context: 4 days treatment, read-out: IC50
readout_name: pIC50
Units for pIC50: none; it is -log10 of a concentration expressed in mol/L.

Incoming: Lab request: please report pIC50 under test system MV4-11 (MLL-AF4) cells for Cc1c(CN2CCC(Nc3ncnc4sc(CC(F)(F)F)cc34)CC2)ccc2c1cc(C#N)n2Cc1cn[nH]c1 [MI-503, reference compound]
Outgoing: 6.72

====

System: SK-LU-1 cells
procedure_text: Proliferation assay, cells in adhesion
Format: cell-based
measurement_context: Homo sapiens, SK-LU-1, SK-LU-1, T7, read-out: IC50
readout_name: pIC50
Units for pIC50: none; it is -log10 of a concentration expressed in mol/L.

Incoming: Lab request: please report pIC50 under test system SK-LU-1 cells for C=CC(=O)NC1CCCN(Cc2ccnc(C(=O)Nc3ccc(-c4cc5c(N6CCOCC6)ncnc5[nH]4)cc3)c2)C1 (centres unmarked)
Outgoing: 6.23

====

Entries annotated with measured IC50
Tested on: HL-60 cells
procedure_text: Long-term proliferation (LTP) assay, CellTiterGlo (Example 103)
Type: cell-based
measurement_context: Homo sapiens, 264 h, Day 11, LTP assay, read-out: Day 11 IC50
Experimental: The day of the experiment (TO) all the cell line suspensions were counted by Cell Viability Analyser, Vi-CELL and properly diluted with fresh medium to obtain the cell density reported in the Test System paragraph. […] Luminescence was read by using VictorV (Perkin Elmer) multilabel plate reader using the standard protocol for luminescence in 96 well plate. […] CRCs were analysed by GraphPad and IC50 values were calculated by non-linear regression using 4 parameter-logistic equation. […]
Please respond with the number in nM and leave the unit unwritten.

CN(C)C/C=C/C(=O)NC1CN(c2ccnc(NC(=O)Nc3ccc(-c4cc5c(N6CCOCC6)ncnc5[nH]4)cc3)c2)C1 [Compound 15]; 850
C=CC(=O)NC1CN(c2ccnc(NC(=O)Nc3ccc(-c4cc5c(N6CCOCC6)ncnc5[nH]4)cc3)c2)C1 [Compound 1]; 780

Incoming: Endpoint output: IC50 of C=CC(=O)NC1CCCN(Cc2ccnc(C(=O)Nc3ccc(-c4cc5c(N6CCOCC6)ncnc5[nH]4)cc3)c2)C1 (stereo not shown) [Compound 10] . Value?
Outgoing: 290

All values here come from patent US12116371B2.
